biological target: T1, human MSLN-R3-his protein (human, UniProt Q13421 487-598); assay: ELISA on coated antigen, antibody 0.02 nM
T1 construct: it is put last here; also called human MSLN-R3 protein; hMSLN-R3-his; not shown: His tag
T1 sequence (Q13421 495-606): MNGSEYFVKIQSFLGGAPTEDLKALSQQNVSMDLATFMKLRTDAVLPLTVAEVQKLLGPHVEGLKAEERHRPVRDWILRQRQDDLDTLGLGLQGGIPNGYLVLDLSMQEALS
Measured metric: OD450 (OD)
Field format: number, assumed OD, no unit text.

Recorded OD450, per entry:
S009-F7.65.13 (antibody, human IgG1, kappa, V domains shown, Human-murine chimeric antibody, human IgG1 heavy and kappa light constant regions) VH: EVQLQQSGPELVKPGTSVKILCKASGDTFTAYNMDWVKQRHGQSLEWIGDINPNTDSTIYNQKFEGKAILTVDKSSSTAYMELRSLTSEDTAVYYCARRKLGRGYFDYWGQGTTLTVSS VL: QIVLTQSPAIMSASPGEKVTMTCSVNLSVRYIYWYQQKPGSSPRLLIHDTSNLASGVPVRFSGSGSGTSYSLTISRMEAEDAATYYCQQWSSFPYTFGGGTKLEIKR
0.35
Tab106 (YP218, hIgG1) (antibody, V domains shown, Control antibody; YP218 VH and VL recombined into human IgG1 CH and CL expression vectors; also called YP218 human IgG1 antibody) VH: QQQLEESGGGLVKPEGSLTLTCKASGFDLGFYFYACWVRQAPGKGLEWIACIYTAGSGSTYYASWAKGRFTISKASSTTVTLQMTSLAAADTATYFCARSTANTRSTYYLNLWGPGTLVTVSS VL: DVVMTQTPASVSEPVGGTVTIKCQASQRISSYLSWYQQKPGQRPKLLIFGASTLASGVPSRFKGSGSGTEYTLTISDLECADAATYYCQSYAYFDSNNWHAFGGGTEVVVRT
0.97

Attention now shifts to the item below.
OD450 reported for this binder S009-F7.21.16 (antibody, human IgG1, kappa, V domains shown, Human-murine chimeric antibody, human IgG1 heavy and kappa light constant regions) VH: QVQLQQPGTELVKPGASVKLSCKASGYTFTTFWMHWVKQRPGQGLEWIGGVNPTNGGTNYNEKFRTKATLTVDKSSTTADMQLSSLTSEDSAVYYCAPHYISSRPGFAYWGQGTLVTVSG VL: DIVMTQSQKFMSTSGGDRVSVTCKASQNVGTNVAWYQQKPGQSPKALIYSASYRYSGVPDRFTGSGSGTDFILTISNVQSEDLAEYFCQQYNSYPLTFGGGTKLEIKR : 1.32

Sourced from patent US20250250357A1
